System: HCT-15 colon
Assay: NCI-60 one-dose screen, 48 h (100 = growth as untreated, 0 = no growth, -100 = all killed)
Details: 10 µM
Compounds without any hit were thinned out: in the full panel of roughly 83,000, 20% have a hit.
quantity_name: growth (%)

- test_smiles: "FC(F)(F)c1ccc2c(c1)N(CCCN1CCN(C3CC3)CC1)c1ccccc1S2"
  quantity_name: "growth"
  measurement: 68.7
- test_smiles: "C/C(=N/NC(N)=O)c1ccco1"
  quantity_name: "growth"
  measurement: 102
- test_smiles: "Cc1ccc(Cl)cc1NC(=O)N(C)CCO"
  quantity_name: "growth"
  measurement: 110

* * *

Reported growth by item:
Test system: NCI/ADR-RES ovarian
Assay: NCI-60 one-dose screen, 48 h (100 = growth as untreated, 0 = no growth, -100 = all killed)
Conditions: 10 µM
The panel holds about 83,000 compounds, 20% with a hit somewhere; the sample as a whole holds those more often.
quantity_name: growth (%)

- compound: "O=C1C=CC2=C3c4cc(O)c(O)cc4CC3(O)COC2=C1O (centres undefined)"
  endpoint_unit: "%"
  measurement: 101
- compound: "CCCCC1C(=O)N(c2ccccc2)N(c2ccccc2)C1=O"
  endpoint_unit: "%"
  measurement: 103
- compound: "CCCOC(=O)C(O)c1ccccc1 (centres undefined)"
  endpoint_unit: "%"
  measurement: 109
- compound: "NC(C(=O)O)C(O)c1ccco1 (centres undefined)"
  endpoint_unit: "%"
  measurement: 112

* * *

Test system: OVCAR-8 ovarian
Assay: NCI-60 one-dose screen, 48 h (100 = growth as untreated, 0 = no growth, -100 = all killed)
Details: 10 µM
Procedure: Growth inhibition of the OVCAR-8 human tumor cell line is measured as a screen for anti-cancer activity. Cells are grown in 96 well plates and exposed to the test compound for 48 hours. Compounds are tested at a single concentration, which is 10^-5 M for most compounds. The reported endpoint is percent growth (GI% or GIPRCNT), where numbers from 0 - 100% represent growth inhibition, and numbers from -100% - 0 represent cell death. For example, a value of 40 represents 60% growth inhibition. […]
This is part of a sample that, as a whole, favours compounds with a hit. Of some 83,000 tested, about 20% had one in any assay.
Recorded growth, one value per entry.

- compound: "COc1ccc2c(c1)CCc1c-2n[nH]c1-c1[nH]nc2c1CCc1cc(OC)ccc1-2"
  growth [%]: 84.7
- compound: "CC(=O)NC(N)=S"
  growth [%]: 104
- compound: "COc1ccc(Oc2c(I)cc(CC(NC(C)=O)C(=O)O)cc2I)cc1 (centres undefined)"
  growth [%]: 83.2
- compound: "COc1ccccc1NC(=O)c1cc2cc(Br)ccc2cc1O"
  growth [%]: 9.55
- compound: "COC(=O)C(C)Oc1ccc(OC#N)cc1 (centres undefined)"
  growth [%]: 104
- compound: "O=S(=O)(O)C(Nc1ccccc1)c1ccccc1 (centres undefined)"
  growth [%]: 104
- compound: "COC1=CC(=O)c2nc(Cl)ccc2C1=O"
  growth [%]: 7.95
- compound: "COc1ccc(NC(=O)CCl)cc1"
  growth [%]: 80.8
- compound: "CCCNC(=O)c1ccc(S(N)(=O)=O)cc1"
  growth [%]: 122
- compound: "N#Cc1ccc(NC(=O)Nc2cccc(C#N)c2)cc1"
  growth [%]: 83.6
- compound: "Sc1ccc(Nc2c3ccccc3nc3ccccc23)cc1"
  growth [%]: 106
- compound: "CC(C)NC(=O)OCc1c(COC(=O)NC(C)C)c(-c2ccc(Cl)c(Cl)c2)n2c1SCC2"
  growth [%]: 44.7
- compound: "CCCCOC(OCCCC)c1ccccc1"
  growth [%]: 108
- compound: "CC(C)=NNC(N)=S"
  growth [%]: 72.4
- compound: "O=[N+]([O-])c1cccc(N=Nc2ccc(O)cc2O)c1"
  growth [%]: 74.3
- compound: "C=C[Si](OC(C)=O)(OC(C)=O)OC(C)=O"
  growth [%]: 109
- compound: "O=C(NC1CCCCC1)OCc1c(COC(=O)NC2CCCCC2)c(-c2ccc(Cl)c(Cl)c2)n2c1CCC2"
  growth [%]: 35
- compound: "O=C(Nc1ccccc1)OCCc1ccccc1"
  growth [%]: 103
- compound: "CC1SC(N)=NC1=O (centres undefined)"
  growth [%]: 105
- compound: "O=[N+]([O-])c1cccc2nsnc12"
  growth [%]: 93.4
- compound: "O=C(/C=C\\c1ccc(O)cc1)c1ccccc1"
  growth [%]: 98.6
- compound: "CSC(=N\\N=C\\c1ccc(N(C)C)cc1)/N=C/N(C)C"
  growth [%]: 102
- compound: "CCCCCC(C)(CC(=O)O)CC(=O)O"
  growth [%]: 103
- compound: "Cc1ccc(O)c(C(=O)c2ccccc2)c1"
  growth [%]: 111
- compound: "O=C(O)CCCc1ccccc1"
  growth [%]: 96.7
- compound: "Oc1ccc(Cc2ccccc2)c2cccnc12"
  growth [%]: 15.5
- compound: "CC(=O)c1ccc(C)c(N)c1"
  growth [%]: 96.4
- compound: "CC1=CC(=O)c2ccccc2C1=O"
  growth [%]: 107
- compound: "N#CSc1cc(S(N)(=O)=O)ccc1N"
  growth [%]: 102
- compound: "CCN(CC)CCCC(C)Nc1ccnc(/C=C/c2ccc(Cl)cc2)c1 (centres undefined)"
  growth [%]: 14.8
- compound: "CCOc1ccccc1/C=N/Nc1nc2ccccc2o1"
  growth [%]: 108
- compound: "O=c1[nH]c(O)c(/C=C2/C=Nc3ccccc32)[nH]1"
  growth [%]: 98.1
- compound: "Cc1cccc([N+](=O)[O-])c1Cl"
  growth [%]: 99.6
- compound: "Nc1ccc(N=Nc2ccc(S(=O)(=O)O)cc2)c2ccccc12"
  growth [%]: 103
- compound: "C/C=C/CC(C)C(O)C1C(=O)NC(CC)C(=O)N(C)CC(=O)N(C)C(CC(C)C)C(=O)NC(C(C)C)C(=O)N(C)C(CC(C)C)C(=O)NC(C)C(=O)NC(C)C(=O)N(C)C(CC(C)C)C(=O)N(C)C(CC(C)C)C(=O)N(C)C(C(C)C)C(=O)N1C (centres undefined)"
  growth [%]: 38.1
- compound: "CCCCC/C=N/Nc1nc(C)cc(=O)[nH]1"
  growth [%]: 100
- compound: "O=C(CC(=O)c1ccccc1O)c1ccccc1"
  growth [%]: 73
- compound: "O=C(O)C(Cc1ccccc1)C(=O)O"
  growth [%]: 109
- compound: "COc1ncnc2c1cnn2C"
  growth [%]: 103

* * *

System: EKVX NSCLC
Test: NCI-60 one-dose screen, 48 h (100 = growth as untreated, 0 = no growth, -100 = all killed)
Details: 10 µM
About 83,000 compounds went through this panel and 20% of them were active in at least one assay; those are over-represented in the sample as a whole.
This section presents compounds with their documented growth values.

- compound: "COc1ccc(C(O)c2ccccc2)cc1 (configuration not stated)"
  target_under_test: "EKVX NSCLC"
  growth [%]: 101
- compound: "Nc1nc(N)c2cc(S(=O)(=O)c3cccc(C(F)(F)F)c3)ccc2n1"
  target_under_test: "EKVX NSCLC"
  growth [%]: 44
- compound: "CC(=O)OCC1CCCO1 (configuration not stated)"
  target_under_test: "EKVX NSCLC"
  growth [%]: 96
- compound: "O=C(Cc1nc2ccc([N+](=O)[O-])cc2nc1CC(=O)c1ccccc1)c1ccccc1"
  target_under_test: "EKVX NSCLC"
  growth [%]: 55.8
- compound: "C=CCOC(=O)C(=O)OCC=C"
  target_under_test: "EKVX NSCLC"
  growth [%]: 132
- compound: "CCOC(=O)c1ccc(Nc2sc(C(=O)c3cccc([N+](=O)[O-])c3)c(N)c2C#N)cc1"
  target_under_test: "EKVX NSCLC"
  growth [%]: 62.1
- compound: "CSc1[nH]c(=O)ncc1F"
  target_under_test: "EKVX NSCLC"
  growth [%]: 101
- compound: "COc1ccccc1C1OC2=Nc3cc(C)c(C)cc3NC2C1=O (configuration not stated)"
  target_under_test: "EKVX NSCLC"
  growth [%]: 83.9
- compound: "Cc1ccc(Cl)cc1N1C(=O)CC(Sc2ccccc2N)C1=O (configuration not stated)"
  target_under_test: "EKVX NSCLC"
  growth [%]: 104
- compound: "O=C(CCNNC(=O)c1ccncc1)NCc1ccccc1"
  target_under_test: "EKVX NSCLC"
  growth [%]: 106
- compound: "CC(C)C(C#N)(C(C)C)C(C)C"
  target_under_test: "EKVX NSCLC"
  growth [%]: 96.7
- compound: "CC1(C)N=C(N)N=C(N)N1c1ccc(Cl)cc1"
  target_under_test: "EKVX NSCLC"
  growth [%]: 48.4
- compound: "COc1ccccc1NC(=O)C1=C(C)NC(C)=C(C(=O)Nc2ccccc2OC)C1c1cccc([N+](=O)[O-])c1"
  target_under_test: "EKVX NSCLC"
  growth [%]: 44.1
- compound: "CC(=O)/C(Cc1ccccc1)=N/O"
  target_under_test: "EKVX NSCLC"
  growth [%]: 92.4
- compound: "OCCN(CCO)C(=S)S"
  target_under_test: "EKVX NSCLC"
  growth [%]: 96.3
- compound: "OCc1cccc2ccccc12"
  target_under_test: "EKVX NSCLC"
  growth [%]: 119
- compound: "[O-][N+](=Nc1cccc(Cl)c1)c1cccc(Cl)c1"
  target_under_test: "EKVX NSCLC"
  growth [%]: 88.8
- compound: "O=c1c2ccccc2c(Br)c(Br)c2ccccc12"
  target_under_test: "EKVX NSCLC"
  growth [%]: 105
- compound: "COC(=O)Nc1nc2ccc(C(=O)c3ccc(F)cc3)cc2[nH]1"
  target_under_test: "EKVX NSCLC"
  growth [%]: 36.7
- compound: "O=[N+]([O-])c1ccc(N=Nc2ccc(O)c3ccccc23)cc1"
  target_under_test: "EKVX NSCLC"
  growth [%]: 60
- compound: "O=C1NC(=O)C2C(=O)NC(=O)C1C21CCc2ccccc21 (configuration not stated)"
  target_under_test: "EKVX NSCLC"
  growth [%]: 90.1
- compound: "C#CC(C)(O)c1ccc(Cl)cc1 (configuration not stated)"
  target_under_test: "EKVX NSCLC"
  growth [%]: 98.6
- compound: "O=c1cc2oc3cc(O)c(O)cc3c(-c3ccccc3O)c-2cc1O"
  target_under_test: "EKVX NSCLC"
  growth [%]: 84
- compound: "CCC/C=C(/C(C)=O)C(=O)OCC"
  target_under_test: "EKVX NSCLC"
  growth [%]: 168
- compound: "COc1ccc(OC)c(/C=C2\\CCc3ccccc3C2=O)c1"
  target_under_test: "EKVX NSCLC"
  growth [%]: 50
- compound: "CC1=CC(=O)c2ccccc2C1=O"
  target_under_test: "EKVX NSCLC"
  growth [%]: 114
- compound: "Cc1cc(N2CCC(N3CCCC3)CC2)nc(/N=C(\\N)Nc2ccc(Cl)c(Cl)c2)n1"
  target_under_test: "EKVX NSCLC"
  growth [%]: 2.57
- compound: "N#Cc1ccc(NC(=O)Nc2cccc(C#N)c2)cc1"
  target_under_test: "EKVX NSCLC"
  growth [%]: 94.5
- compound: "CCNc1nc2c(cnn2C)c(=O)[nH]1"
  target_under_test: "EKVX NSCLC"
  growth [%]: 99.4
- compound: "O=C1c2ccccc2C(=O)N1OCc1ccccc1"
  target_under_test: "EKVX NSCLC"
  growth [%]: 98.7
- compound: "Cc1ccc(C)n1-c1ccsc1C(=O)NNC(=O)CCl"
  target_under_test: "EKVX NSCLC"
  growth [%]: 81.2
- compound: "c1ccc(Sc2ccccc2)cc1"
  target_under_test: "EKVX NSCLC"
  growth [%]: 101
- compound: "S=c1nn[nH]c2ccccc12"
  target_under_test: "EKVX NSCLC"
  growth [%]: 117
- compound: "CC1(O)CCCCC1O (configuration not stated)"
  target_under_test: "EKVX NSCLC"
  growth [%]: 114
- compound: "CC(=O)N(C)c1ccc([N+](=O)[O-])cc1"
  target_under_test: "EKVX NSCLC"
  growth [%]: 122
- compound: "COc1cc2cc(OC(C)=O)c3cc4c(cc3c2c(OC)c1OC)OCO4"
  target_under_test: "EKVX NSCLC"
  growth [%]: 95
- compound: "CC(C)COC(=O)COC(=O)OCCOCCOC(=O)OCC(=O)OCC(C)C"
  target_under_test: "EKVX NSCLC"
  growth [%]: 119
